# System: MS2 coat protein
# Assay text: apparent KD of MS2 coat protein; designed switch direction (-1 OFF switch, 1 ON switch): 1; higher = weaker reporter binding
# Condition info: Eterna round: R95; input ligand: none
# key: entry, value: apparent KD of MS2 coat protein
Give the value in µM but do not write µM after it.

• GGUCCAGCCUGAGCUGGACUAUAGCAUGUACAUGAGGAUCACCCAUGUCAUGUACAAGUAUGUUGUUUGUCUUGAAA [Sensorship 6 - Jieux - Sensor for hsa-mir-208a] (puzzle: Sensor for hsa-mir-208a) = 0.0202
• GUAGGACAUGAGGAUCACCCAUGUAGGAGGGAACGAGGAUAUGUGAUUAGCGAGGAGAGGACAGAAGGCGUGGUAG [JR_SS1_Sub025] (puzzle: Same State 1) = 0.0213
• UACUAUCUAUCUCAGGAUAUCAUGUCAAAGACAUGAGGAUCACCCAUGUACCAGGAAACUGGUUAUGAGAAGGGAGAUAGAUAGA [Mat - Same State 2 - Mod - D39] (puzzle: Same State 2) = 0.234
• GGAGCCGGCACCGAGGAUAUUCAUAUUAAAACAUGAGGAUCACCCAUGUACGCCAGAAGGCGUUGGGAGAAGGCGGAUCGGCUCG [Xeonanis - 22] (puzzle: Same State 2) = 0.362
• AUUUAACAAGCUUUUUGCUCGUCUUAUAAACAUGAGGAUCACCCAUGUAAUAGCGUGAGAGUAAUUAUAUUAAUUAU [JMF 101] (puzzle: Sensor for hsa-mir-208a) = 0.0147
• AGUCCAGCAAGAGCUGGACAAAAGCAUGUACAUGAGGAUCACCCAUGUUCAUGUACAAGCUUUUAGCUCGUCUUAAA [Mat - hsa-mir-208a - Mod of JL - 58] (puzzle: Sensor for hsa-mir-208a) = 0.57

Exercise: Reported apparent KD of MS2 coat protein for AGUCCUGAAUAAAUUAAACAGAGACAUGUACAUGAGGAUCACCCAUGUCAUGUACAAGUUCUAUGCUCGUCAUAUAA [Sensorship 19 - Jieux - Sensor for hsa-mir-208a] (puzzle: Sensor for hsa-mir-208a) : what is it?
Solution: 0.0247

Exercise: Then AUAAGUUUGAUGCUCGUCUCUCCGUACAAACAUGAGGAUCACCCAUGUGGUCGGGAAGUAGCCCGGCCGGUAUGGCC [Atusri] (puzzle: Sensor for hsa-mir-208a) ?
Solution: 0.0158

Exercise: Record: CCGUGGUAACAUGAGGAUCACCCAUGUACAAGCUUUUUGCUCGUUGGAUCCGGCGCGCCCAUUAUGGGCGCGCCGGA [Nishu_Seq2] (puzzle: Sensor for hsa-mir-208a version 2)
Solution: 0.0256

Exercise: // repeat for UCUUGGUUUUUGCUCGUUUUUUGUGUUGAACAUGAGGAUCACCCAUGUAUUGUACGGUCCAGUUUAGUAAUGGUCCA [JMF 7] (puzzle: Sensor for hsa-mir-208a) and report
Solution: 0.0278
